The reported numbers originate from patent US20250268906A1.

Documented pIC50 across a set of compounds
# System: MM.1S cells
# EXPERIMENT_DESCRIPTION: Tumor cell proliferation inhibition, CCK-8 kit, 96 h
# Format: cell-based
# RUN_PARAMETERS: Homo sapiens, MM1.S, MM.1S cells, CCK-8, read-out: IC50 for inhibiting the proliferation of tumor cells, MM.1S cell
pIC50: −log10 of the molar value.

The reported value for O=C1CCC(N2Cc3c(SCCCCCCCNC4CC5(CCC5)C4)cc(F)cc3C2=O)C(=O)N1 (stereo not drawn) [GT-05422] in terms of pIC50 is > 8.30

// sample O=C1CCC(N2Cc3c(SCc4ccc(CN5CCC(F)(F)CC5)c(F)c4)cc(F)cc3C2=O)C(=O)N1 (stereo not drawn) [GT-05444] , its pIC50 was > 8.30

pIC50 recorded for this compound, CN(CCCCCCCSc1cc(F)cc2c1CN(C1CCC(=O)NC1=O)C2=O)C12CC3CC(CC(C3)C1)C2 (stereo not drawn) [GT-05421] , is > 8.30

In plain terms, O=C1CCC(N2Cc3c(SCc4ccc(CCNC56CC7CC(CC(C7)C5)C6)cc4)cc(F)cc3C2=O)C(=O)N1 (stereo not drawn) [GT-05431] has a documented pIC50 of > 8.30

// O=C1CCC(N2Cc3c(SCc4ccc(CNC56CC7CC(CC(C7)C5)C6)cc4)cc(F)cc3C2=O)C(=O)N1 (stereo not drawn) [GT-05423] : pIC50 value = > 8.30

====

Property: pIC50; scope: individual compounds
# Test system: Mino cells
# EXPERIMENT_DESCRIPTION: Tumor cell proliferation inhibition, CCK-8 kit, 96 h
# Format: cell-based
# RUN_PARAMETERS: Homo sapiens, Mino cells, CCK-8, read-out: IC50 for inhibiting the proliferation of tumor cells, Mino cell
pIC50: −log10 of the molar value.

>  <COMPOUND>
CC1(C)[C@@H]2CC[C@@]1(C)[C@@H](NCCCCCCCSc1cc(F)cc3c1CN(C1CCC(=O)NC1=O)C3=O)C2 (some centres unmarked)

>  <MEAS_VALUE>
> 8.30

$$$$

Summary for this compound, O=C1CCC(N2Cc3c(SCc4ccc(CN5CCCCC5)c(F)c4)cc(F)cc3C2=O)C(=O)N1 (centres unmarked) : pIC50 is > 8.30

The compound identified as O=C1CCC(N2Cc3c(SCCCCCCC(=O)N4CCCCC4)cc(F)cc3C2=O)C(=O)N1 (centres unmarked) registered its pIC50 at 7.30 to 8.00

response.value for CN(CCCCCCCSc1cc(F)cc2c1CN(C1CCC(=O)NC1=O)C2=O)C12CC3CC(CC(C3)C1)C2 (centres unmarked) (field: pIC50) = > 8.30

Note to self: pIC50 recorded for O=C1CCC(N2Cc3c(SCc4ccc(CN5CCCCC5)cc4)cc(F)cc3C2=O)C(=O)N1 (centres unmarked) was > 8.30

The recorded pIC50 for entry O=C1CCC(N2Cc3c(SCc4ccc(CCNC56CC7CC(CC(C7)C5)C6)cc4)cc(F)cc3C2=O)C(=O)N1 (centres unmarked) equals > 8.30

Data point: O=C1CCC(N2Cc3c(SCCCCCCCNC4CCCCC4)cc(F)cc3C2=O)C(=O)N1 (centres unmarked) ; pIC50 = > 8.30

Kindly note the recorded pIC50 for O=C1CCC(N2Cc3c(SCCCCCCC(=O)N4CCC(F)(F)CC4)cc(F)cc3C2=O)C(=O)N1 (centres unmarked) , which is 7.30 to 8.00

// O=C1CCC(N2Cc3c(SCCCCCCCNC4CC5(CCC5)C4)cc(F)cc3C2=O)C(=O)N1 (centres unmarked) : pIC50 value = > 8.30

Documented pIC50 of CC1(C)[C@@H]2CC[C@@]1(C)[C@@H](NCc1ccc(CSc3cc(F)cc4c3CN(C3CCC(=O)NC3=O)C4=O)cc1)C2 (some centres unmarked) : > 8.30

Record summary for O=C1CCC(N2Cc3c(SCc4ccc(CNC56CC7CC(CC(C7)C5)C6)cc4)cc(F)cc3C2=O)C(=O)N1 (centres unmarked) : reported pIC50 = > 8.30

get_value(item= O=C1CCC(N2Cc3c(SCCCCCCCN4CCC(F)(F)CC4)cc(F)cc3C2=O)C(=O)N1 (centres unmarked) , readout=pIC50) returns 7.00 to 7.30

pIC50 for O=C1CCC(N2Cc3c(SCc4ccc(CN5CCC(F)(F)CC5)c(F)c4)cc(F)cc3C2=O)C(=O)N1 (centres unmarked) is > 8.30

The value of pIC50 measured for the compound O=C1CCC(N2Cc3c(CCCCCCCCNC45CC6CC(CC(C6)C4)C5)cc(F)cc3C2=O)C(=O)N1 (centres unmarked) turned out to be 7.00 to 7.30

====

# Test system: Daudi cells
# EXPERIMENT_DESCRIPTION: Tumor cell proliferation inhibition, CCK-8 kit, 96 h
# Assay type: cell-based
# RUN_PARAMETERS: Homo sapiens, Daudi, read-out: IC50 for inhibiting the proliferation of tumor cells, Daudi cell
PARAMETER_MEASURED: IC50

The measured IC50 associated with Nc1cccc2c1C(=O)N(C1CCC(=O)NC1=O)C2=O (stereo not shown) [pomalidomide, reference compound] reads 1000 to 5000 nM

====

# Tested on: MM.1S cells
# EXPERIMENT_DESCRIPTION: Tumor cell proliferation inhibition, CCK-8 kit, 96 h
# Format: cell-based
# RUN_PARAMETERS: Homo sapiens, MM1.S, MM.1S cells, CCK-8, read-out: IC50 for inhibiting the proliferation of tumor cells, MM.1S cell
pIC50: −log10 of the molar value.
PARAMETER_MEASURED: pIC50

>  <MOLECULE>
CC1(C)[C@@H]2CC[C@@]1(C)[C@@H](NCc1ccc(CSc3cc(F)cc4c3CN(C3CCC(=O)NC3=O)C4=O)cc1)C2 (stereo partly shown) [GT-05424]

>  <pIC50>
7.30 to 8.00

$$$$

# pIC50 of O=C1CCC(N2Cc3c(SCc4ccc(CN5CCCCC5)c(F)c4)cc(F)cc3C2=O)C(=O)N1 (stereo not shown) [GT-05443] = 7.30 to 8.00

The recorded pIC50 for entry CC1(C)[C@@H]2CC[C@@]1(C)[C@@H](NCCCCCCCSc1cc(F)cc3c1CN(C1CCC(=O)NC1=O)C3=O)C2 (stereo partly shown) [GT-05425] equals 7.00 to 7.30

Field pIC50 (entry O=C1CCC(N2Cc3c(SCCCCCCC(=O)N4CCC(F)(F)CC4)cc(F)cc3C2=O)C(=O)N1 (stereo not shown) [GT-05407] ) reads 7.00 to 7.30
